Tested on: HS 578T breast
PROTOCOL DESCRIPTION: NCI tumour cell line growth inhibition, 48 h
Use True when the recorded TGI is no lower than 4 µM; use False when it is lower.

Answered examples (3):
Prompt line: I'd appreciate it if you could say whether CCCCCCCCCCCCCCCC1=NC(C)(C)CN1C(C)C has TGI at least equal to 4 µM.
Response line: False

Prompt line: I'd appreciate it if you could say whether CCOC(=O)[C@@H]1ON2OC(OC3CCCC3(c3ccccc3)c3ccccc3)C(OC(C)=O)[C@H]3OC(=O)[C@@H]1C32 (stereo not given in full) has TGI at least equal to 4 µM.
Response line: True

Prompt line: I'd appreciate it if you could say whether CCCCCn1c(C)cc(/C=C\c2ccc3cc(C)ccc3[n+]2C)c1C has TGI at least equal to 4 µM.
Response line: False

Others:
Prompt line: I'd appreciate it if you could say whether COc1cc(CS(=O)c2ccc(O)cc2)cc(OC)c1OC (stereo not given) has TGI at least equal to 4 µM.
Response line: True

Cited source for all entries: PubChem BioAssay (NCI)
